Listing of entries alongside the reported pKd.
assaySystem: SARS-CoV-2 Omicron BA.1 RBD (SARS-CoV-2 Omicron BA.1, strain)
methodNotes: BLI
pKd: −log10 of the molar value.

Some solved cases for reference:
C807 (antibody, V domains shown) VH: QVQLVQSGAEAKKPGSSVKVSCKASGGTFKSYIINWVRQAPGQGLEWMGEIIPIFGTANYAQKFQGRVTSTADESTSTAYMELSSLKSEDTAVYYCARGRGYSGYGASYYFDYWGQGTLVTVSS VL: QSVLTQPPSVSGAPGQRVTISCTGSNSNIGAGYDVHWYQQLPGTAPKLLIYANSNRPSGVPDRFSGSKSGTSASLAITGLQAEDEADYYCQSYDSGLSGSVFGGGTKLTVL ... > 9.52
BD56-104 (antibody, V domains shown) VH: QVQLVQSGAEVKTPGSSVKVSCKASGGTFGSHSITWVRQAPGQGLEWMGRVIPILGIPDFAESFQGRVAITADRSTSTAHMELSRLRSEDTAVYYCARDVGYSGSGSSNYFDSWGQGTLVTVSS VL: QSVLTQPPSVSGAPGQRVTISCTGSNSNIGAGYDVHWYRQLPGTAPKLLIYVNNNRPSGVPDRFSGSRSGASASLAITGLQAEDEAEYYCQSYDSSLSGSIFGGGTKLTVL ... > 9.52
BD56-597 (antibody, V domains shown) VH: QVQLVQSGAEVKKPGSSVKVSCKASGGTFSTYPISWVRQAPGQGVEWMGAIIPILGTTDYAQIFQGRVTITADKSTSTAYMELSSLRPEDTAVYYCARERGYSGYGAAYYFDSWGQGTLVTVSS VL: QSVLTQPPSVSGAPGQRVTISCTGSDSNIGAGYDVHWYQQLPGTAPKLLIYVNINRPSGVPDRFSGSKSATSASLAITGLQAEDEADYYCQSYDSSLSGVVFGGGTKLTVL ... > 9.52

[ask] Tell me measured pKd for C092 (antibody, V domains shown) VH: QVQLVQSGAEVKKPGSSVKVSCKASGGSFTNHFISWVRQAPGQGLEWMGRIIPILGTANYAQNFQGRVMMTADKSTSTAYMELSSLRSEDTAVYYCARDSGYSGYGSTYYMDVWGKGTTVTVSS VL: QSVLTQPPSVSGAPGQRVTISCTGSNSNIGAGYDVHWYQQLPGAAPKLLIYGNNNRPSGVPDRFSGSKSDTSASLAITGLQVEDEADYYCQSYDSSLSDSVFGSGTKVTVL please.
[reply] > 9.52
